Kindly supply the reported GI50 values for the records listed here.
- Test system: SK-OV-3
- MEASUREMENT_DESCRIPTION: NCI tumour cell line growth inhibition, 48 h
Active and inactive are the calls of the source. Cut-off read from the data, not from the text of the source: active = GI50 up to about 1.1 µM and inactive = higher.

Please review the following examples before continuing.
C[C@H]1CCC/C=C/[C@@H]2C[C@H](OC3OC(CO)C(O)C(O)C3O)C[C@H]2[C@H](O)/C=C/C(=O)O1 (stereo not given in full)    40 µM (inactive)
CCOc1ccc(NC(=O)C(=O)CC(=O)c2c(C)[n+]([O-])c3ccccc3[n+]2[O-])cc1    > 100 µM (inactive)
N#Cc1nc(C2CCC(=O)O2)oc1N (stereo not given)    > 100 µM (inactive)
Cn1c(=O)c2c(nc3n2CC(=O)N3CCCCl)n(C)c1=O    > 100 µM (inactive)
NC(Cc1ccnnc1)C(=O)O (stereo not given)    > 100 µM (inactive)

Take each entry in turn and give its GI50.
1. O=C1C2c3[nH]c4ccccc4c3C3CCCC3C2C(=O)N1c1ccccc1 (stereo not given)
2. CC1=NN2C(=N)/C(=C/c3ccc(F)cc3)C(=O)N=C2S1
3. Cc1cc(NS(=O)(=O)c2ccc(Nc3c4ccccc4nc4c(C(=O)N5CCN(CCOS(C)(=O)=O)CC5)cccc34)cc2)no1
4. Nc1nc(Cl)cc(NCCCCCCCCCCNc2cc(Cl)nc(N)n2)n1
5. O=C1C=Cc2noc3cccc1c23

Response given:
> 100 µM (inactive)
> 100 µM (inactive)
> 100 µM (inactive)
87.3 µM (inactive)
18.1 µM (inactive)

----------
- Test system: MDA-MB-231
- MEASUREMENT_DESCRIPTION: NCI tumour cell line growth inhibition, 48 h
The source made the active and inactive calls. No stated cut-off is given here; in the data, active = GI50 up to about 1.1 µM and inactive = higher. Where a SMILES comes first, the peptide text is derived from it. The star is where a group is joined. Boc = CC(C)(C)OC(=O)*
Kindly supply the reported GI50 values for the records listed here.

Please review the following examples before continuing.
COC(=O)/C1=C/C=C\C[C@@]2(C)CC(c3ccoc3)OC(=O)[C@@H]2CC[C@H]1C (some centres not stated)    > 25 µM (inactive)
COC(=O)[C@]12CC[C@H]3CC[C@H]([C@H]31)[C@H](c1ccccc1)N2    16.3 µM (inactive)
CC(C)(O)C1CC[C@]2(C)CC[C@]3(C)[C@H](CC[C@@H]4[C@@]5(C)CC[C@H](O)C(C)(C)[C@@H]5CC[C@]43C)[C@@H]12 (some centres not stated)    > 100 µM (inactive)
O=C1[C@@H]2C[C@@H](O)CN2C(=O)c2ccccc2N1CCCO    > 100 µM (inactive)
CC1=NN(c2cccc(Cl)c2)C2(C1)C(Cl)C(=O)N2c1nc2ccccc2s1 (configuration not stated)    21.5 µM (inactive)

Take each entry in turn and give its GI50.
1. CCOC(=O)c1ccc(C(=O)n2ccnc2)[nH]1
2. CN(C)Cc1cc(Cl)c(O)c(CN(C)C)c1
3. C/C(CC/C(C)=N/O)=N\O
4. COc1ccc(OC)c2c(Nc3ccc(S(=O)(=O)O)c4cc(S(=O)(=O)O)cc(S(=O)(=O)O)c34)cc(C)nc12
5. CC(C)(Oc1ccccc1)C(=O)Sc1c(-c2ccccc2)c(=O)n(-c2ccccc2)c(=S)n1-c1ccccc1

Response given:
1: > 100 µM (inactive); 2: > 100 µM (inactive); 3: > 100 µM (inactive); 4: > 100 µM (inactive); 5: 28.8 µM (inactive)

Take each entry in turn and give its GI50.
1. NC(=O)CCC(CCC(N)=O)(CCC(N)=O)[N+](=O)[O-]
2. C=CC[N+]12CN3CN(CN(C3)C1)C2
3. Cn1c(-c2cccc([N+](=O)[O-])c2)[n+](C)c2ccccc21

Response given:
1: > 100 µM (inactive); 2: 32.2 µM (inactive); 3: > 100 µM (inactive)

Take each entry in turn and give its GI50.
1. CNc1ccc2c(c1)[C@@]1(C)c3ccccc3[C@@H](C2)N1C
2. O=C(N/N=C1\C(=O)Nc2ccc(Br)cc21)/C(O)=C/C(=O)c1ccc(Cl)cc1
3. CC1=NC(=O)C(C)(c2ccccc2)N1CCc1ccccc1 (configuration not stated)
4. COC(=O)/C=C(\C)CC/C=C(\C)CCC1OC1(C)C (configuration not stated)
5. Cc1cccc(C)c1NC(=S)NC=C1C(=O)c2ccccc2C1=O

Response given:
23.2 µM (inactive)
45.5 µM (inactive)
67.6 µM (inactive)
12.1 µM (inactive)
19.5 µM (inactive)

Take each entry in turn and give its GI50.
1. COC(=O)[C@H](Cc1ccc(O)cc1)NC(=O)[C@H](Cc1ccc(O)cc1)NC(=O)OC(C)(C)C (Boc-Tyr-Tyr-OMe)
2. O=C(NC1=C(Cl)C(=O)c2ccccc2C1=O)c1ccccc1
3. CC(=O)[C@@]1(c2ccccc2)CC2(CCN(C)CC2)O[C@H]1C

Response given:
["60 µM (inactive)", "32.9 µM (inactive)", "> 100 µM (inactive)"]
